Experiment: Components of the Cytosolic LPS Sensing Pathway: Gene Identification via Genome-wide siRNA Screen;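 note: robust z of the log signal after scaling to non-targeting control siRNA wells of the plate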
Settings: RAW264.7 macrophages, IL-1a HTRF, actives lie on both sides, screened at 100 nM (by protocol), cells primed 5 h with Pam3CSK4 first
Among all 53,000 sequences or so, about 3,700 (7%) were called active. This excerpt belongs to a sample that is enriched for actives.
recorded.metric: z-score
Enter the number alone.

For orientation, consider the following solved cases.
1) GGAAUCGGUGUAUUCGUUUTT against Sectm1b ... 0.593
2) GGCUUUUCUGGCUAUCCACTT against Anxa7 ... -0.774
3) GGCACAUUAGUAGAACACATT against Sorcs2 ... -0.243

Now consider the entry below.
Exercise: Which value of z-score has been reported for GGAUUAUCAGAAGUGUGUCTT against Mrps35 in the records?
Key: -0.117
